molecular target: His6-ERα298-554 Y537S mutant (ERα ligand-binding domain) (Homo sapiens (Human), UniProt P03372, Y537S); test: Test A: biochemical antagonist activity, LanthaScreen TR-FRET ERα coactivator assay, Y537S mutant; settings: asterisk (*): protocol using 10 nM estradiol; read-out: Antagonism Y537S IC50
Sequence (P03372 298-554 Y537S): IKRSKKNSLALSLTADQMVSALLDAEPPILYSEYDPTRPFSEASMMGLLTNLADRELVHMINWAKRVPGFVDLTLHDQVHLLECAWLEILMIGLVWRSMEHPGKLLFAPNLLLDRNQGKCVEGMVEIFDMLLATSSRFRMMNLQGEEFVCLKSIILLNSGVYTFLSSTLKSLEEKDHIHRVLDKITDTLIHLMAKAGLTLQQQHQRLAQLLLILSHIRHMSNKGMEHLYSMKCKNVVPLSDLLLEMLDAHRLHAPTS
pIC50: −log10 of the molar value.

| compound | op | pIC50 |
| --- | --- | --- |
| Cc1ccc(C2=C(c3ccc(O[C@H]4CCN(CCCF)C4)cc3)c3ccc(O)cc3[S+]([O-])C2)c(F)c1 (single isomer, unassigned) [Example 70] | < | 5.40 |
| COCCOc1ccc(C2=C(c3ccc(O[C@H]4CCN(CCCF)C4)cc3)c3ccc(O)cc3OCC2)cc1 [Example 146] | = | 6.07 |
| Cc1ccc(C2=C(c3ccc(O[C@H]4CCN(CCCF)C4)cc3)c3ccc(O)cc3SC2)c(F)c1F [Example 64] | = | 6.69 |
| Cc1ccc(C2=C(c3ccc(O[C@H]4CCN(CCCF)C4)cc3)c3ccc(C(=O)O)cc3SC2)c(F)c1 [Example 25] | < | 5.40 |

----------
target: His6-ERα298-554 Y537S mutant (ERα ligand-binding domain) (Homo sapiens (Human), UniProt P03372, Y537S); test: Test A: biochemical antagonist activity, LanthaScreen TR-FRET ERα coactivator assay, Y537S mutant; details: asterisk (*): protocol using 10 nM estradiol; read-out: Antagonism Y537S IC50
outcome measure: log10 IC50 (log10 of the value in nM)

| molecule | outcome measure | value observed |
| --- | --- | --- |
| CCOc1cc(F)c(C2=C(c3ccc(O[C@H]4CCN(CCCF)C4)cc3)c3ccc(O)cc3SC2)cc1F | log10 IC50 | 2.78 |
| Cc1ccc(C2=C(c3ccc(O[C@H]4CCN(CCCF)C4)cc3)c3ccc(O)cc3SC2)c(Cl)n1 | log10 IC50 | 2.55 |
| CCOc1ccc(C2=C(c3cnc(O[C@H]4CCN(CCCF)C4)nc3)c3ccc(O)cc3SC2)c(F)n1 | log10 IC50 | 1.79 |
| CC1Cc2c([nH]c3ccccc23)C(c2c(F)cc(O[C@H]3CCN(CCCF)C3)cc2F)N1CC(C)(C)F (single isomer, unassigned) [Example 256] | log10 IC50 | 2.00 |
| CS(=O)(=O)c1ccc(C2=C(c3ccc(O[C@H]4CCN(CCCF)C4)cc3)c3ccc(O)cc3SCC2)cc1 | log10 IC50 | 2.15 |
| CCOc1ccc(C2=C(c3ccc(O[C@H]4CCN(CCCF)C4)cc3)c3ccc(O)cc3OCC2)c(Cl)c1 | log10 IC50 | 1.93 |
| CCN(CC)c1ccc(C2=C(c3ccc(O[C@H]4CCN(CCCF)C4)cc3)c3ccc(O)cc3SCC2)c(F)c1 | log10 IC50 | 3.01 |
| Oc1ccc2c(c1)SCCC(c1ccc(OCF)cc1)=C2c1ccc(O[C@H]2CCN(CCCF)C2)cc1 | log10 IC50 | 1.34 |
| Cc1ccc(C2=C(c3ccc(O[C@H]4CCN(CCCF)C4)cc3)c3ccc(C(=O)O)cc3SCC2)c(F)c1 | log10 IC50 | 3.12 |
| CCNc1ccc(C2=C(c3ccc(O[C@H]4CCN(CCCF)C4)cc3)c3ccc(O)cc3SCC2)c(F)c1 | log10 IC50 | 1.52 |
| Oc1ccc2c(c1)SCC(c1ccc3c(c1)OCCO3)=C2c1ccc(O[C@H]2CCN(CCCF)C2)cc1 | log10 IC50 | 1.61 |
